Tested on: KM12 colon
assay notes: NCI tumour cell line growth inhibition, 48 h
Tick 1 if TGI is 20 µM or greater. Tick -1 if TGI is less than 20 µM.

Data request: Hello, I need to know if O=S(=O)(Cc1ccccc1)SCc1ccccc1 has measured TGI not below 20 µM. Thanks!
Data returned: 1

Data request: What do you get for O=[N+]([O-])c1ccc(/C=C\c2ccc3c(c2)OCO3)c([N+](=O)[O-])c1 ?
Data returned: 1

Data request: What do you get for O=C(/C=C/c1cccc(Oc2ccc(Cl)cc2)c1)c1ccccc1 ?
Data returned: 1

Data request: What do you get for CCCCOc1ccc(S(=O)(=O)/N=C(\N)Nc2ccc(Cl)cc2)cc1 ?
Data returned: 1

Data request: What do you get for CC(C)C/C(=N\NC(=O)c1ccncc1)c1cc(Cl)ccc1O ?
Data returned: 1

Data request: What do you get for CON(C)C(=O)C(C)NC(=O)OC(C)(C)C (configuration not stated) ?
Data returned: 1

Data request: What do you get for Cn1c(CC(O)c2nc3ccccc3n2C)nc2ccccc21 (configuration not stated) ?
Data returned: 1

###

Test system: EKVX NSCLC
assay notes: NCI tumour cell line growth inhibition, 48 h; in the data active = GI50 below about 0.43 µM; inactive = the rest
Parameter call: string, one of active, inactive

CCOC(=O)C1=C(C)N(Cc2ccc(Cl)cc2Cl)[C@]2(C#N)C(O)=C(Cl)C(Cl)=C(O)[C@]12C#N : inactive

Data request: Please indicate how the test categorized CC(C)C/C(=N\NC(=O)c1ccncc1)c1cc(Cl)ccc1O .
Data returned: active

Data request: What do you get for CN(c1ccc(NC(=O)NCCN2CCOCC2)cc1)c1ccnc(Nc2ccc(CS(C)(=O)=O)cc2)n1 ?
Data returned: inactive

Data request: What do you get for O=C1C2C(C(=O)N1CC[Se][Se]CCN1C(=O)C3C(C1=O)[C@H]1C=C[C@@H]3C1)[C@H]1C=C[C@@H]2C1 (some centres not stated) ?
Data returned: active

Data request: What do you get for Cc1cc(-c2ccco2)cc(C)c1/C=C/c1cncc(-c2nn[nH]n2)c1 ?
Data returned: inactive

Data request: What do you get for Nc1ccn([C@@H]2S[C@H](CO)[C@@H](O)[C@@H]2F)c(=O)n1 ?
Data returned: inactive

Data request: What do you get for O=S(=O)(NCCCNc1nccc(-c2c(-c3cccc(F)c3)nc3occn23)n1)c1cccc2ccccc12 ?
Data returned: inactive

###

System: HCT-15 colon
assay notes: NCI tumour cell line growth inhibition, 48 h
measured attribute: TGI

Data request: Report TGI for CC(C)C/C(=N\NC(=O)c1ccncc1)c1cc(Cl)ccc1O please.
Data returned: 98.9 µM

Data request: What do you get for CC(=O)c1sc2c(c1O)c(=O)n(-c1ccccc1)c(=S)n2-c1ccccc1 ?
Data returned: > 100 µM

###

System: MDA-MB-231 breast
assay notes: NCI tumour cell line growth inhibition, 48 h; in the data active = GI50 below about 0.43 µM; inactive = the rest
Parameter call: string, one of 1.0 = active, 0.0 = inactive

The following compounds have reported results that may help.
Cc1nn2c(-c3nc4cc(Cl)c(Cl)cc4[nH]3)c(-c3ccc(F)cc3)nc2s1 : 0.0
O=C(Nc1ccc(Br)cc1)Nc1cccc(Br)c1 : 0.0
CC(C)C/C(=N\NC(=O)c1ccncc1)c1cc(Cl)ccc1O : 0.0

Data request: Please indicate how the test categorized CC1=NN(c2nc(N)nc(/C=C\c3ccccc3)n2)C(C)(C)C1 .
Data returned: 0.0

Data request: What do you get for COc1ncc2cc1NS(=O)(=O)c1cccc(c1)C(=O)NCC1=CC=C(S1)c1ncnc3c1SC2=C3C ?
Data returned: 1.0

###

Test system: A498 renal
assay notes: NCI tumour cell line growth inhibition, 48 h; in the data active = GI50 below about 0.43 µM; inactive = the rest
Parameter call: string, one of active, inactive

The following compounds have reported results that may help.
CC(=O)OC1COC(Oc2c(C)c3c4c(c2O)[C@@H](C)CC[C@@H]4[C@@H](C)C[C@H]3C=C(C)C)C(O)C1O (some centres undefined) : inactive
CCOC(=O)c1cc2cc(OCc3ccccc3)ccc2[nH]1 : inactive
Nc1n[nH]c2ccc([C@@H]3Nc4c(F)cc5[nH]ncc5c4[C@H]4C5CCC(C5)[C@@H]34)cc12 (some centres undefined) : active

Would you kindly look at the next entry?
Data request: Please indicate how the test categorized Oc1ccc(-c2[nH]c3ccccc3c2-c2nc3ccccc3o2)cc1 .
Data returned: inactive

###

Test system: IGROV1 ovarian
assay notes: NCI tumour cell line growth inhibition, 48 h
List of TGI values.

Data request: Query TGI on IGROV1 ovarian for N=C(N)c1ccc(N=Nc2c(O)ccc3cc(O)ccc23)cc1
Data returned: > 100 µM

Data request: What do you get for CCOc1ccc(/C=C2/C(=O)N=C(N)N=C2N)cc1OCC ?
Data returned: > 100 µM

Data request: What do you get for CO[C@]12C[C@@H](CNC(=O)c3cc(Br)c[nH]3)O[C@H]1NC(=O)N2 ?
Data returned: > 100 µM

Data request: What do you get for Cc1ccc2oc3c(ccc(=O)n3C)c(=O)c2c1 ?
Data returned: > 100 µM

Data request: What do you get for COC(=O)C1(Cc2ccccc2)Cc2c(C)ccc(C)c2C1=O (stereo unspecified) ?
Data returned: > 100 µM

Data request: What do you get for CC(=O)Nc1sccc1S(=O)(=O)c1ccc(Cl)cc1 ?
Data returned: > 100 µM

###

Test system: HCC-2998 colon
assay notes: NCI tumour cell line growth inhibition, 48 h; in the data active = GI50 below about 0.43 µM; inactive = the rest
Parameter call: string, one of True for active, False for inactive

The following molecules have reported results that may help.
COC(=O)c1ccc2c(c1)C(=O)c1c-2n(CCCCl)c(=O)c2cc(OC)c(OC)cc12 : False
Cc1ccc(C(=O)N2C/C(=C/c3ccccc3)C(=O)/C(=C/c3ccccc3)C2)cc1 : False
CC1(C)CC(O)CC(C)(C)N1.CC1(C)CC(O)CC(C)(C)N1.CC1(C)CC(O)CC(C)(C)N1.CC1(C)CC(O)CC(C)(C)N1.Cl.[Ti] : False
Nc1ccn([C@@H]2S[C@H](CO)[C@@H](O)[C@@H]2F)c(=O)n1 : False

Data request: Please indicate how the test categorized CCN(CC)Cc1cc(Nc2cc(C(F)(F)F)c(C#N)c3nc4ccccc4n23)ccc1O .
Data returned: False

Data request: What do you get for COc1ncc2cc1NS(=O)(=O)c1cccc(c1)C(=O)NCC1=CC=C(S1)c1ncnc3c1SC2=C3C ?
Data returned: True

Data request: What do you get for Cc1ccc(-c2nc(C(Cl)Cl)nc3cc(C)nn23)cc1 ?
Data returned: False

Data request: What do you get for Cc1cc(-c2ccco2)cc(C)c1/C=C/c1cncc(-c2nn[nH]n2)c1 ?
Data returned: False

Data request: What do you get for CCOC(=O)c1cc2cc(OCc3ccccc3)ccc2[nH]1 ?
Data returned: False

Data request: What do you get for CC1(C)OC2OC(COC(=O)C(c3ccccc3)c3ccccc3)C3OC(C)(C)OC3C2O1 (stereo unspecified) ?
Data returned: False

Data request: What do you get for CC1=NN(c2nc(N)nc(/C=C\c3ccccc3)n2)C(C)(C)C1 ?
Data returned: False

###

Tested on: OVCAR-5 ovarian
assay notes: NCI tumour cell line growth inhibition, 48 h; in the data active = GI50 below about 0.43 µM; inactive = the rest
Parameter call: string, one of class 1 (active), class 0 (inactive)

COc1cc(OC)c(/C=C/C(=O)c2c(N)cc(OC)cc2OC)c(OC)c1 : class 0
OC(c1cc(-c2ccc(Cl)cc2)nc2c(Cl)cccc12)C1CCCCN1 (stereo not given) : class 0
COC(=O)c1ccc2c(c1)C(=O)c1c-2n(CCCCl)c(=O)c2cc(OC)c(OC)cc12 : class 0
CN(C)CCS(=O)(=O)Nc1cc(-c2ccc3ncnc(Nc4ccc(F)c(Cl)c4)c3c2)cnc1Cl : class 1
O=C(Nc1ccc(Br)cc1)Nc1cccc(Br)c1 : class 0

Data request: Please indicate how the test categorized CCN(CC)C(=S)SSCCO .
Data returned: class 0

Data request: What do you get for CC1(C)CC(O)CC(C)(C)N1.CC1(C)CC(O)CC(C)(C)N1.CC1(C)CC(O)CC(C)(C)N1.CC1(C)CC(O)CC(C)(C)N1.Cl.[Ti] ?
Data returned: class 0

Data request: What do you get for CCN(CC)CCS(=O)(=O)CCNc1ccnc2cc(Cl)ccc12 ?
Data returned: class 0

Data request: What do you get for O=C1C2C(C(=O)N1CC[Se][Se]CCN1C(=O)C3C(C1=O)[C@H]1C=C[C@@H]3C1)[C@H]1C=C[C@@H]2C1 (stereo not given in full) ?
Data returned: class 0

Data request: What do you get for O=C1c2ccccc2-c2c1c1ccc([N+](=O)[O-])cc1c(=O)n2CCCCl ?
Data returned: class 0

###

List of GI50 values.
Test system: SW-620 colon
assay notes: NCI tumour cell line growth inhibition, 48 h

CCN(CC)CCS(=O)(=O)CCNc1ccnc2cc(Cl)ccc12 : 0.608 µM
CC1(C)N=C(N)N=C(N)N1c1ccc(OCCCCNC(=O)Nc2cccc(S(=O)(=O)F)c2)c(Cl)c1 : 0.657 µM
C=CC[PH+](c1ccccc1)c1ccccc1.C=CC[PH+](c1ccccc1)c1ccccc1.[Pt+2].[S-]c1ncccn1.[S-]c1ncccn1 : 4.75 µM

Data request: Report GI50 for CN(c1ccc(NC(=O)NCCN2CCOCC2)cc1)c1ccnc(Nc2ccc(CS(C)(=O)=O)cc2)n1 please.
Data returned: > 25 µM

Data request: What do you get for CN(C)CCS(=O)(=O)Nc1cc(-c2ccc3ncnc(Nc4ccc(F)c(Cl)c4)c3c2)cnc1Cl ?
Data returned: 1.2 µM

Data request: What do you get for O=C(CN(/C=C/C(=O)C(F)(F)F)c1ccccc1)c1ccc(F)cc1 ?
Data returned: 19.9 µM

Data request: What do you get for Cc1cn2c(/C=C3/C(=O)Nc4ccc(C(=O)O)cc43)c(C)nc2s1 ?
Data returned: > 100 µM

Data request: What do you get for CC/C(=C(/c1ccc(/C=C/C(=O)O)cc1)c1ccc2[nH]ncc2c1)c1ccc(F)cc1Cl ?
Data returned: 12 µM

Data request: What do you get for CCOC(=O)C1=C(C)N(Cc2ccc(Cl)cc2Cl)[C@]2(C#N)C(O)=C(Cl)C(Cl)=C(O)[C@]12C#N ?
Data returned: 31.8 µM

Data request: What do you get for Cc1cc(-c2ccco2)cc(C)c1/C=C/c1cncc(-c2nn[nH]n2)c1 ?
Data returned: > 25 µM

Data request: What do you get for O=S(=O)(NCCCNc1nccc(-c2c(-c3cccc(F)c3)nc3occn23)n1)c1cccc2ccccc12 ?
Data returned: 6.91 µM
